Where these numbers come from: the nanobody polyreactivity screen of Harvey et al. (2022)

TEST DETAILS: yeast display, Sf9 membrane polyspecificity reagent, FACS + sequencing; frameworks hold sequencing errors
ASSAY METRIC: polyreactivity (PSR sort gate)

Sample records with polyreactivity (PSR sort gate):
# SEQUENCE DATA, polyreactivity (PSR sort gate)
data = [
    ("QVQLVESGGGLVQAGGSLRLSCAASGRNYGNAMGWYRQAPGKERELVAAISAGGGRTYYADSVKGRFTISRDNAKNTVYLQMNSLKPEDTAVYYCAADTTLQAFIRYRPIGSYDSWGQGTQVTVSS", "low polyreactivity"),
    ("QVQLVESGGGLVQEGGSLRLSCAASGTFYDYVMGLYRPAPGKERELVATISDNDGSTYYADSVKGRFTISRDNAKNTVYLQKNSLKPEDTALYYCNAGRTWPIVADYSWLSYGSWGQGTQVTVSS", "high polyreactivity"),
    ("QVQLVESGGALVQAGGSLRLSCAASGGIFSYYAMGWYRQAPGKERELVAAMSWSGTSTYYADSVKGRFTISRDNAKNTVYLQMNSLNQEDTAVYYCNKVTYSRAQYIGGDGYFWGEGTQVTVSS", "high polyreactivity"),
    ("QVQLVESGGGLVQAGGSLRLSCAASGIIFRNYAMGWYRQAPGKEREFVASITKRGGSTYYADSVKGRFTISRDNAKNTVYLQMNSLKPEDTAVYYCNTQWYRGRTEYGYWGQGTQVTVSS", "high polyreactivity"),
]

Could you now consider this next sequence?
Dear colleague, please send me the reported polyreactivity (PSR sort gate) for QVQLVESGGGLVQAGGSLRLSCAASGSTFDGYAMGWYRQAPGKERELVAAITVSVGSTYYADSVKGRFTISRDNAKNTVYLQMNSLIPEDTAVYYCAADYDYHYRYYYWGQGTQVTVSS when you can.
low polyreactivity
